Target: human Src (Homo sapiens, UniProt P12931)
Sequence (P12931 whole entry): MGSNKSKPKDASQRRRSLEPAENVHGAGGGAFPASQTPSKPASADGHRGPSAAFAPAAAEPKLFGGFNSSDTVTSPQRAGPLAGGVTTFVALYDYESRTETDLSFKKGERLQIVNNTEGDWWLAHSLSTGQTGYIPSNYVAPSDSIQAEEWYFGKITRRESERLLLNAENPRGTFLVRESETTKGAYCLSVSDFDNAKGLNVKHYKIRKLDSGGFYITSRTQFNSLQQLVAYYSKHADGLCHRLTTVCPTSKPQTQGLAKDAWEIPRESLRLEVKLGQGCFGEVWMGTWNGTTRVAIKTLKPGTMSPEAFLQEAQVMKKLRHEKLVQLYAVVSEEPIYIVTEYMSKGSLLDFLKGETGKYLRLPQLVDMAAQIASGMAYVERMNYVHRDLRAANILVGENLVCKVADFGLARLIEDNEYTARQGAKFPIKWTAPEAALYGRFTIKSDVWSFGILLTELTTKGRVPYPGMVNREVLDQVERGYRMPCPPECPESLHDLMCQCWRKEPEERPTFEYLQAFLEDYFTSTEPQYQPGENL
Test: C1: c-Src filter assay
Assay type: biochemical
Details: 5 ng human Src, 1.0 μM unlabeled ATP, poly(Glu,Tyr) 4:1, 25° C., 10 minutes; read-out: C1: c-SRC filter pIC50 (converted)
test-readout: IC50 (nM)

CN1CCCCCOc2cc3c(ncnc3cc2OCCCN2CCS(=O)(=O)CC2)Nc2c(ccc3c2OCO3)C1 = 708

[a] CN1CCNCCCOc2cc3c(ncnc3cc2OCCCN2CCOCC2)Nc2c(ccc3c2OCO3)C1
[b] CN1CCC(COc2cc3ncnc4c3cc2OCCCCCN(C)Cc2ccc3c(c2N4)OCO3)CC1
Lower value for measured IC50? Options: a , b Refer to your chosen entry by its label in the reply. a

[1] CN1CCN(CCCOc2cc3ncnc4c3cc2OCCCCCN(C)Cc2ccc3c(c2N4)OCO3)CC1
[2] CN1CCCCCOc2cc3c(ncnc3cc2OCCCN2CCCCC2)Nc2c(ccc3c2OCO3)C1
[3] COc1cc2ncnc3c2cc1OCCCCCNCc1ccc2c(c1N3)OCO2 [Compound A10]
Put the items in order so that reported IC50 rises from first to last. Put the labels in the requested order and write them down. 1, 2, 3

* * *

Biological target: human Fyn (Homo sapiens)
Experiment: C2: Fyn kinase assay
Format: biochemical
Details: 5 ng human Fyn, 1.0 μM unlabeled ATP, poly(Glu,Tyr) 4:1, 25° C., 10 minutes; read-out: C2: Fyn kinase pIC50 (converted)
test-readout: IC50 (nM)

C[C@H]1C(=O)NCCCOc2cc3c(ncnc3cc2OCCCN2CCN(C)CC2)Nc2c(ccc3c2OCO3)CN1C [Compound B57] = 26.3
C[C@H]1C(=O)NCCCOc2cc3c(ncnc3cc2OCCCN2CCS(=O)(=O)CC2)Nc2c(ccc3c2OCO3)CN1C = 38

[I] C[C@H]1C(=O)NCCCOc2cc3c(ncnc3cc2OCCCN2CCOCC2)Nc2c(ccc3c2OCO3)CN1C [Compound A42]
[II] COc1cc2ncnc3c2cc1OCCCCCN(C)Cc1ccc2c(c1N3)OCO2
// which entry reports the smaller IC50, I or II ? Provide the label of your selected option as the answer. II

* * *

Target: human Src (Homo sapiens)
Assay: C1: c-Src filter assay
Format: biochemical
Settings: 5 ng human Src, 1.0 μM unlabeled ATP, poly(Glu,Tyr) 4:1, 25° C., 10 minutes; read-out: C1: c-SRC filter pIC50 (converted)
Experimental: The in vitro inhibition of c-Src kinase was assessed using the glass-fiber filter technology as described by Davies, S. P. et al., Biochem J. (2000), 351; p. 95-105. In the glass-fiber filter technology the activity of the kinase is measured using an appropriate substrate that is incubated with the aforementioned kinase protein in the presence of (^33P) radiolabeled ATP. (^33P) Phosporylation of the substrate is subsequently measured as radioactivity bound on a glassfiber-filter. […]
test-readout: IC50 (nM)

Consider the following illustrative entries.
CN1CCN(CCCOc2cc3ncnc4c3cc2OCCCN(C(=O)OC(C)(C)C)CCN(C)Cc2ccc3c(c2N4)OCO3)CC1 [Compound A27] = 2240
CN(CCO)CCCOc1cc2ncnc3c2cc1OCCCCCN(C)Cc1ccc2c(c1N3)OCO2 [Compound B15] = 562
COCCOCCOc1cc2ncnc3c2cc1OCCCCCN(C)Cc1ccc2c(c1N3)OCO2 [Compound B31] = 2630
CN1CCCCCOc2cc3c(ncnc3cc2OC[C@@H](O)CN2CCCCC2)Nc2c(ccc3c2OCO3)C1 [Compound B1] = 537

[I] CN1CCCCCOc2cc3c(ncnc3cc2OCCCNCCS(C)(=O)=O)Nc2c(ccc3c2OCO3)C1 [Compound B68]
[II] COc1cc2ncnc3c2cc1OCCCN(S(=O)(=O)c1ccccc1[N+](=O)[O-])CCN(C)Cc1ccc2c(c1N3)OCO2 [Compound A20]
[III] CN(CCO)CCCOc1cc2ncnc3c2cc1OCCCN(C(=O)OC(C)(C)C)CCN(C)Cc1ccc2c(c1N3)OCO2 [Compound A29]
Sort by IC50, descending. List the labels in the requested order. III, I, II
(III: 2630 nM, I: 692 nM, II: 186 nM)

[a] COCCNCCCOc1cc2ncnc3c2cc1OCCCCCN(C)Cc1ccc2c(c1N3)OCO2 [Compound B70]
[b] COCCOCCOc1cc2ncnc3c2cc1OCCCNCCN(C)Cc1ccc2c(c1N3)OCO2 [Compound B4]
[c] COc1cc2ncnc3c2cc1OCCCNC(=O)[C@H](C)N(C)Cc1ccc2c(c1N3)OCO2 [Compound A38]
[d] CN1CCCCCOc2cc3c(ncnc3cc2OCCCN2CCN(CCO)CC2)Nc2c(ccc3c2OCO3)C1 [Compound B13]
Reorder: IC50, max to min. Lab note: final answer is the ordered label list. c, b, a, d
(c: 3310 nM, b: 1480 nM, a: 776 nM, d: 295 nM)

[I] COc1cc2ncnc3c2cc1OCCCN(C)CCN(C)Cc1ccc2c(c1N3)OCO2 [Compound B10]
[II] CN1CCCCCOc2cc3c(ncnc3cc2OCCCN)Nc2c(ccc3c2OCO3)C1 [Compound A57]
[III] COc1cc2ncnc3c2cc1OCCCCCNCc1cc(Br)c2c(c1N3)OCO2 [Compound B8]
[IV] CN1CCCCCOc2cc3c(ncnc3cc2OCCCN2CCCC2)Nc2c(ccc3c2OCO3)C1 [Compound B21]
List from greatest to least IC50. Field: ranking. Enter the labels in the order requested. III, I, II, IV
(III: 6460 nM, I: 1910 nM, II: 933 nM, IV: 575 nM)

* * *

Target: human Fyn (Homo sapiens, UniProt P06241)
Sequence (P06241 whole entry): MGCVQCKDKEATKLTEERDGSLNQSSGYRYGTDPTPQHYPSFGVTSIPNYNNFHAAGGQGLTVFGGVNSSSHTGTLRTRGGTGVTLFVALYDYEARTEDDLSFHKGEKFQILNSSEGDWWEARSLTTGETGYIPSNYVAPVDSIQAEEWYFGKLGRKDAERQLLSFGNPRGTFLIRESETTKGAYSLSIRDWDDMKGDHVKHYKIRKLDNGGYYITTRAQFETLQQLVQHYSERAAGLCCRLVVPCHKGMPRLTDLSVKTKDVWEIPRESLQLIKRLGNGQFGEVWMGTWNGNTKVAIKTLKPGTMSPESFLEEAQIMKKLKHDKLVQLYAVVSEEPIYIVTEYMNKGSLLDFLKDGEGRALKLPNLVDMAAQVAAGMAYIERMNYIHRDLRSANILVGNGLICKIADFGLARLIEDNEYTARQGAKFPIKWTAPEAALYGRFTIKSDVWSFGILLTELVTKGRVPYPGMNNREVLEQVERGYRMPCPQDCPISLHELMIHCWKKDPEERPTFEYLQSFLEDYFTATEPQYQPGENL
Experiment: C2: Fyn kinase assay
Assay type: biochemical
Conditions: 5 ng human Fyn, 1.0 μM unlabeled ATP, poly(Glu,Tyr) 4:1, 25° C., 10 minutes; read-out: C2: Fyn kinase pIC50 (converted)
test-readout: IC50 (nM)

Use these answered entries as a reference point.
Oc1cc2ncnc3c2cc1OCCCCCNCc1cc(Br)c2c(c1N3)OCO2 = 209
CC(=O)NCCN1CCN(CCCOc2cc3ncnc4c3cc2OCCCNC(=O)[C@H](C)N(C)Cc2ccc3c(c2N4)OCO3)CC1 = 37.2
COCCNCCCOc1cc2ncnc3c2cc1OCCCNC(=O)[C@H](C)N(C)Cc1ccc2c(c1N3)OCO2 = 138
COCCOCCOc1cc2ncnc3c2cc1OCCCNCCN(C)Cc1ccc2c(c1N3)OCO2 = 23.4
C[C@H]1C(=O)NCCCOc2cc3c(ncnc3cc2OCCCN(C)CCO)Nc2c(ccc3c2OCO3)CN1C = 214

[I] COc1cc2ncnc3c2cc1OCCCN(C)CCN(C)Cc1ccc2c(c1N3)OCO2
[II] COc1cc2ncnc3c2cc1OCCCCN(C)CCc1ccc2c(c1N3)OCO2
[III] COc1cc2ncnc3c2cc1OCCCN(S(=O)(=O)c1ccccc1[N+](=O)[O-])CCN(C)Cc1ccc2c(c1N3)OCO2
Let's sort these by IC50, smallest first. Go ahead? List the labels in the requested order. III, I, II
(III: 6.92 nM, I: 21.9 nM, II: 110 nM)

* * *

Molecular target: human Fyn (Homo sapiens)
Experiment: C2: Fyn kinase assay
Assay type: biochemical
Details: 5 ng human Fyn, 1.0 μM unlabeled ATP, poly(Glu,Tyr) 4:1, 25° C., 10 minutes; read-out: C2: Fyn kinase pIC50 (converted)
test-readout: IC50 (nM)

Answered examples (2):
C[C@H]1C(=O)NCCCOc2cc3c(ncnc3cc2OCCCN2CCN(C(=O)CCS(C)(=O)=O)CC2)Nc2c(ccc3c2OCO3)CN1C = 42.7
COc1cc2ncnc3c2cc1OCCCNC(=O)[C@H](C)N(C)Cc1ccc2c(c1N3)OCO2 = 245

[P] CN1CCN(CCCOc2cc3ncnc4c3cc2OCCCNCCN(C)Cc2ccc3c(c2N4)OCO3)CC1
[Q] CN1CCCCCOc2cc3c(ncnc3cc2OCCCN)Nc2c(ccc3c2OCO3)C1
[R] COc1cc2c3c(ncnc3c1)Nc1c(ccc3c1OCO3)CNCCCCCO2
# desc sort on IC50 across 3 molecules # the answer lists labels in the order requested R, Q, P

* * *

Biological target: human Fyn (Homo sapiens)
Experiment: C2: Fyn kinase assay
Assay type: biochemical
Conditions: 5 ng human Fyn, 1.0 μM unlabeled ATP, poly(Glu,Tyr) 4:1, 25° C., 10 minutes; read-out: C2: Fyn kinase pIC50 (converted)
test-readout: IC50 (nM)

Solved cases (5 shown):
C[C@H]1C(=O)NCCCOc2cc3c(ncnc3cc2OCCCN2CCN(C)CC2)Nc2c(ccc3c2OCO3)CN1C [Compound B58] = 33.1
CCOC(CCOc1cc2ncnc3c2cc1OCCCCCN(C)Cc1ccc2c(c1N3)OCO2)OCC [Compound B32] = 38
COc1cc2ncnc3c2cc1OCCCCCNCc1cc(Br)c2c(c1N3)OCO2 [Compound B8] = 16.6
CN1CCN(C(=O)OC(C)(C)C)CCCOc2cc3c(ncnc3cc2OCCCN2CCC(S(C)(=O)=O)CC2)Nc2c(ccc3c2OCO3)C1 [Compound A54] = 69.2
C[C@H]1C(=O)NCCCOc2cc3c(ncnc3cc2OC[C@@H](O)CN2CCC(O)CC2)Nc2c(ccc3c2OCO3)CN1C [Compound B62] = 200

[a] CN1CCCCCOc2cc3c(ncnc3cc2O)Nc2c(cc(Br)c3c2OCO3)C1 [Compound B48]
[b] COCCNCCCOc1cc2ncnc3c2cc1OCCCCCN(C)Cc1ccc2c(c1N3)OCO2 [Compound B70]
[c] CN(CCO)CCCOc1cc2ncnc3c2cc1OCCCN(C(=O)OC(C)(C)C)CCN(C)Cc1ccc2c(c1N3)OCO2 [Compound A29]
[d] COc1cc2ncnc3c2cc1OCCCN(C)C(=O)[C@H](C)N(C)Cc1cc(Cl)c2c(c1N3)OCO2 [Compound B76]
Arrange items by their IC50 values in increasing order. To answer, write out the labels according to the requested order. b, c, a, d
